Ref: patent US20210040232A1

molecular target: T1, soluble human CTLA-4 expressed with a C-terminal myc-myc-polyhistidine tag (human); test: SPR, mAb capture, 25 C
T1 construct: soluble protein; also called hCTLA-4.mmh; hCTLA4.mmh
T1 sequence (chain, as listed by the source limits assumed): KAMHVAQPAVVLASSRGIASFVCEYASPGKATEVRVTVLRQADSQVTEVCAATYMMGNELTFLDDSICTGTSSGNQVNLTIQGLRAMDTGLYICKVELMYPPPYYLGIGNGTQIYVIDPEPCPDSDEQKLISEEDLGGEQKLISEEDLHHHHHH
quantityMeasured: t1/2 (min)
Provide only the numeric value, understood in min.

binder	t1/2 / min
H1H19291P (antibody, human IgG1, V domains shown) VH: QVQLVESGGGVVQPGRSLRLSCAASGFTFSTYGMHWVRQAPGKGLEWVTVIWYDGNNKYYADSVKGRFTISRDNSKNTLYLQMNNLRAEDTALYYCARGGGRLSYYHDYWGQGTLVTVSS VL: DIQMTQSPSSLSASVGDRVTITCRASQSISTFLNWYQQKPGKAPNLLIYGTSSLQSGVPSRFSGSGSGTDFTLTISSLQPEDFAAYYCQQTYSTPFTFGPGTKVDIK	9.4

So for H1H19264P (antibody, human IgG1, V domains shown) VH: QVQLVQSGAEVKKPGASVKVSCKASDYTFTSYGISWVRQAPGQGLEWMGWISVYNGNINYAQKFKGRVTMTTDTSTSTAYMELRSLRSDDMAVYYCARVTQFGMDVWGQGTTVTVSS VL: DIQMTQSPSSLSASVGDRVTITCRASQSISSNLNWYQQNPGKAPKLLIYTTSSLQGGVPSRFSGSGSGTDFTLTISSLQPEDFATYYCQQSFRTPFTFGPGTKVDIK , the logged t1/2 turned out to be 15.8
